- Test system: KCl contraction in rat arteries (thoracic aorta)
- Assay overview: Action easing KCl contraction in rat arteries (thoracic aorta ring)
- Cond: read-out: IC50 value (50% inhibitory concentration of hyperpotassium contraction), Test Example 7, Table 7, 37° C.
Exercise: state measured pIC50 for each of the molecules provided.
Numbers only, as −log10 of the molar value.

A selection of reference data follows.
Molecule	Assayed target	Reported measurement
COc1ccc(CCN(C)CCCC(C#N)(c2ccc(OC)c(OC)c2)C(C)C)cc1OC (stereo not drawn) [Verapamil, verapamil, reference compound]	KCl contraction in rat arteries (thoracic aorta)	5.63
COCCOC(=O)C1=C(C)NC(C)=C(C(=O)OC(C)C)C1c1cccc([N+](=O)[O-])c1 (stereo not drawn) [Nimodipine, reference compound]	KCl contraction in rat arteries (thoracic aorta)	7.10
CCOC(=O)C1CC1C1C(C(=O)OCCCc2cccnc2)=C(C)NC(C)=C1C(=O)OCCCc1cccnc1 (stereo not drawn) [Compound 9]	KCl contraction in rat arteries (thoracic aorta)	4.94
CC1=C(C(=O)OCCCc2cccnc2)C(C(C)c2ccccc2)C(C(=O)OCCCc2cccnc2)=C(C)N1 (stereo not drawn) [Compound 7]	KCl contraction in rat arteries (thoracic aorta)	4.89

Now turn to the next molecule.
Exam item: Name the recorded pIC50 for CC1=C(C(=O)OCCCc2cccnc2)C(CC(C)(C)C)C(C(=O)OCCCc2cccnc2)=C(C)N1 [Compound 4] .
Marked response: 4.69

----------
- Tested on: TxA2 synthesis
- Assay overview: TxA2 synthesis inhibiting action test (human blood platelet microsomes)
- Format: biochemical
- Cond: prostaglandin H2
Classify as follows. Reported TxA2 synthesis inhibiting action Rate of suppression at 10^-7 mol (%) greater than or equal to 70%: yes (1). Reported TxA2 synthesis inhibiting action Rate of suppression at 10^-7 mol (%) below: no (0).

These solved cases illustrate the format of a correct answer.
Compound	Assayed target	Cat
O=C(O)/C=C/c1ccc(Cn2ccnc2)cc1 [OKY-046, reference compound]	TxA2 synthesis	yes (1)
CC1=C(C(=O)OCCCc2cccnc2)C(C2CCCCC2)C(C(=O)OCCCc2cccnc2)=C(C)N1	TxA2 synthesis	no (0)
CC1=C(C(=O)OCCCc2cccnc2)C(c2ccc(C(=O)O)cc2)C(C(=O)OCCCc2cccnc2)=C(C)N1 [Control 3, reference compound]	TxA2 synthesis	no (0)
CCCC(C)C1C(C(=O)OCCCc2cccnc2)=C(C)NC(C)=C1C(=O)OCCCc1cccnc1 (stereo not shown)	TxA2 synthesis	yes (1)
CC1=C(C(=O)OCCCc2cccnc2)C(C(C)C)C(C(=O)OCCCc2cccnc2)=C(C)N1	TxA2 synthesis	yes (1)

Exam item: Given `CC1=C(C(=O)OCCCc2cccnc2)C(CC(C)(C)C)C(C(=O)OCCCc2cccnc2)=C(C)N1` , state whether its TxA2 synthesis inhibiting action Rate of suppression at 10^-7 mol (%) is at least 70%.
Marked response: no (0)

Exam item: Follow-up entry: CC1=C(C(=O)OCc2cccnc2)C(c2ccccc2[N+](=O)[O-])C(C(=O)OCc2cccnc2)=C(C)N1 [Control 2, reference compound]
Marked response: yes (1)

Exam item: Try the compound CC1=C(C(=O)OCCCc2cccnc2)CC(C(=O)OCCCc2cccnc2)=C(C)N1 [Control 1, reference compound]
Marked response: yes (1)

Exam item: Proceed to CC1=C(C(=O)OCCCc2cccnc2)C(C(C)C)C(C(=O)OCc2ccncc2)=C(C)N1 (stereo not shown)
Marked response: yes (1)

Exam item: Consider next the compound CC1=C(C(=O)OCCCc2cccnc2)C(C(C)C)C(C(=O)OCCN2CCN(Cc3cccnc3)CC2)=C(C)N1 (stereo not shown) in the same way.
Marked response: no (0)
